# Tested on: Plasmodium falciparum
# Measurement Description: Antimicrobial activity against Plasmodium falciparum IMT Vol harboring Pfcrt, Pfmdr1, Pfmrp, and Pfnhe-1 polymorphisms assessed as growth inhibition after 48 hrs by scintillation counting
# Assay type: functional, organism-based
Quantity Name: pIC50
In textbook form, pIC50 equals minus log to base ten of the concentration in mol/L.

Query :: // returns reported pIC50 for input C=C[C@H]1CN2CC[C@H]1C[C@H]2[C@H](O)c1ccnc2ccc(OC)cc12
Result :: 6.38

---

# Tested on: Plasmodium falciparum
# Measurement Description: Antimicrobial activity against Plasmodium falciparum IMT Bres harboring Pfcrt, Pfmdr1, Pfmrp, and Pfnhe-1 polymorphisms assessed as growth inhibition after 48 hrs by scintillation counting
# Type: functional, organism-based
Quantity Name: pIC50
Hey, just a heads up that pIC50 is the negative log base 10 of the concentration in molar.

Query :: Request: pIC50, test system Plasmodium falciparum, entry C=C[C@H]1CN2CC[C@H]1C[C@H]2[C@H](O)c1ccnc2ccc(OC)cc12 [QUININE]
Result :: 6.30
